target: GST tagged LXRalpha LBD (ligand binding domain) (Homo sapiens); construct: purchased Invitrogen pv4655; assay: LanthaScreen TR-FRET Liver X Receptor Coactivator Assay, LXR alpha-LBD (co-activator recruitment; IP and % Emax relative to T0901317); assay type: biochemical; settings: efficacy at max dose in relation to reference T0901317, LXR alpha-LBD; read-out: LXR alpha actiivty at max dose (%)
Sequence (Q13133 209-447 limits assumed): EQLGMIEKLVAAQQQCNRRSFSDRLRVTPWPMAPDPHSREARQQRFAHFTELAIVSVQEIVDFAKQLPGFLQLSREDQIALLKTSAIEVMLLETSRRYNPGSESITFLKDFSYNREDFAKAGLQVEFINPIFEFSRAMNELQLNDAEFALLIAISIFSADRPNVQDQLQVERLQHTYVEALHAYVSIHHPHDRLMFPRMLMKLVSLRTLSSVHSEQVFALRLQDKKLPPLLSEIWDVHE
EXPERIMENTAL READOUT: Emax (%)

For orientation, consider the following solved cases.
COc1cccc([C@@](O)(C(=O)N(C)CC[C@H]2CC23CCN(c2ccc(C(=O)N(C)C(C)C)c(Cl)n2)CC3)C(F)(F)F)c1    36
CN(C)C(=O)c1ccc(N2CCC(CCCNC(=O)[C@](O)(c3cccc(OC(F)(F)F)c3)C(F)(F)F)CC2)nc1Cl    40

I = CN(C)C(=O)c1ccc(N2CCC3(CC2)C[C@@H]3CCN(C)C(=O)[C@](O)(c2ccccc2)C(F)(F)F)cc1Cl
II = CC(C)[C@](O)(C(=O)N(C)CCCC1CCN(c2ccc(C(=O)N(C)C)c(Cl)n2)CC1)c1ccccc1
III = CN(C)C(=O)c1ccc(N2CCC(C)(CCCN(C)C(=O)[C@]3(c4ccccc4)CCCO3)CC2)nc1Cl
IV = CN(C)C(=O)c1ccc(N2CCC([C@H]3C[C@@H](N(C)C(=O)[C@](O)(c4cccc(C5CC5)c4)C(F)(F)F)C3)CC2)nc1Cl
Number of compounds to sort: 4. Sort criterion: Emax, ascending. Give your ranking as a list of the labels in the requested order.
IV, II, III, I

Reference for the values: patent US10961215B2
